src = ChEMBL document CHEMBL4673375

Would you mind telling me the reported pIC50 of each entry?
// field semantics: pIC50 = negative decimal log of concentration (mol/L)

Reported pIC50 (TRAF2 and NCK-interacting protein kinase (Homo sapiens)) for entry `CN1CCN(Cc2ccc(-c3cnc4[nH]cc(-c5ccc6[nH]ccc6c5)c4c3)cc2)CC1` is 8.28

Given the compound `CN1CCN(Cc2ccc(-c3cnc4[nH]cc(-c5ccccc5)c4c3)cc2)CC1` and test system TRAF2 and NCK-interacting protein kinase (Homo sapiens), the measured pIC50 is 7.85

Noted pIC50 for `CN1CCN(Cc2ccc(-c3cnc4[nH]cc(-c5cccc6ccccc56)c4c3)cc2)CC1` , tested on TRAF2 and NCK-interacting protein kinase (Homo sapiens): 7.51

The compound `CNC(=O)c1cccc(-c2c[nH]c3ncc(-c4ccc(CN5CCN(C)CC5)cc4)cc23)c1` , tested on TRAF2 and NCK-interacting protein kinase (Homo sapiens), showed pIC50 of 7.57

pIC50 on TRAF2 and NCK-interacting protein kinase (Homo sapiens) for `CN1CCN(Cc2ccc(-c3cnc4[nH]cc(-c5cccc(NS(C)(=O)=O)c5)c4c3)cc2)CC1` is 8.15

Bench note, TRAF2 and NCK-interacting protein kinase (Homo sapiens): entry `CC(=O)Nc1cccc(-c2c[nH]c3ncc(-c4ccc(CN5CCN(C)CC5)cc4)cc23)c1` , its pIC50 = 7.92

Record `CN1CCN(Cc2ccc(-c3cnc4[nH]cc(-c5cc(C#N)c6[nH]ncc6c5)c4c3)cc2)CC1` / TRAF2 and NCK-interacting protein kinase (Homo sapiens), pIC50 recorded as 9.64

Bench note, TRAF2 and NCK-interacting protein kinase (Homo sapiens): entry `CN1CCN(Cc2ccc(-c3cnc4[nH]cc(-c5ccc6[nH]cnc6c5)c4c3)cc2)CC1` , its pIC50 = 8.42

Known value: TRAF2 and NCK-interacting protein kinase (Homo sapiens) pIC50 of the compound `Cn1cc(-c2ccc(-c3cnc4[nH]cc(-c5cc(C#N)cc(NS(C)(=O)=O)c5)c4c3)cc2)cn1` equals 9.10

Param item: CN(C)C1CCN(C(=O)c2cccc(-c3cnc4[nH]cc(-c5cc(C#N)cc(NS(C)(=O)=O)c5)c4c3)c2)C1 (configuration not stated) ; param system: TRAF2 and NCK-interacting protein kinase (Homo sapiens); output pIC50: 9.66

# lookup: `CN1CCN(C(=O)c2ccc(-c3cnc4[nH]cc(-c5cc(C#N)cc(NS(C)(=O)=O)c5)c4c3)cc2)CC1` on TRAF2 and NCK-interacting protein kinase (Homo sapiens), pIC50 = 9.68

Simply: `CNC(=O)c1cccc(-c2cnc3[nH]cc(-c4cc(C#N)cc(NS(C)(=O)=O)c4)c3c2)c1` , TRAF2 and NCK-interacting protein kinase (Homo sapiens), pIC50 = 9.74
